# growth per record follows
- System: UACC-257 melanoma
- Assay summary: NCI-60 one-dose screen, 48 h (100 = growth as untreated, 0 = no growth, -100 = all killed)
- Run conditions: 10 µM unless noted
The panel holds about 83,000 compounds, 20% with a hit somewhere; the sample as a whole holds those more often.

Compound: COc1ccc(-c2nc3c(c(-c4ccc(Cl)cc4)nn3-c3ccccc3)c(-c3ccccc3)c2C#N)cc1
Assayed system: UACC-257 melanoma
growth (%): 95.9
//
Compound: COc1cc(-c2cc(-c3ccc(Nc4nc(Nc5ccc(Cl)cc5)nc(Nc5ccc(Cl)cc5)n4)cc3)no2)cc(OC)c1OC
Assayed system: UACC-257 melanoma
growth (%): 100
//
Compound: Clc1ccc(-c2cc(-c3ccccc3)nc(N3CCN(CCCNc4ccnc5cc(Cl)ccc45)CC3)n2)cc1
Assayed system: UACC-257 melanoma
growth (%): 39.2
//
Compound: CCOC(=O)C(CCN(C)C)c1ccccc1 (stereo not given)
Assayed system: UACC-257 melanoma
growth (%): 94.2
//
Compound: O=C(Nc1cccnc1Nc1ccccc1)c1cn(Cc2cccc(Oc3ccccc3)c2)nn1
Assayed system: UACC-257 melanoma
growth (%): 73
//
Compound: COc1cc2c(c(OC)c1OC)C(=O)CC(c1cccc(C(=O)Nc3ccccc3Br)c1)O2 (stereo not given)
Assayed system: UACC-257 melanoma
growth (%): 92.7
//
Compound: COc1ccc(-c2cc(-c3cccnc3)nc3sc4c(N)c(C(C)=O)c(-c5ccccc5)nc4c23)cc1OC
Assayed system: UACC-257 melanoma
growth (%): 92.3
//
Compound: COc1cc(/C=C/c2cn[nH]c2-c2ccc(C)cc2)cc(OC)c1OC
Assayed system: UACC-257 melanoma
growth (%): 39.5
//
Compound: COc1ccc(C=Nc2c(C(=O)Nc3cccc(Cl)c3C)sc3nc(C)c(C(=O)/C=C/c4ccc(OC)cc4)cc23)cc1
Assayed system: UACC-257 melanoma
growth (%): 55.6
//
Compound: CN(C)Cc1cc(C(C)(C)C)cc(Br)c1O
Assayed system: UACC-257 melanoma
growth (%): 119
//
Compound: CCN(CC)C(=O)C1=C(C)NC(=O)NC1c1ccc2c(c1)OCO2 (stereo not given)
Assayed system: UACC-257 melanoma
growth (%): 103
//
Compound: COc1ccc(CN2C(=O)OC(C)(COC(C)=O)C2=O)cc1 (stereo not given)
Assayed system: UACC-257 melanoma
growth (%): 100
//
Compound: Cc1nc(N/N=C/c2cn(-c3ccccc3)nc2-c2cc3ccccc3oc2=O)sc1N=Nc1ccccc1
Assayed system: UACC-257 melanoma
growth (%): 94.5
//
Compound: [N-]=[N+]=NCC1OC(n2cnc3c(NC(=O)Nc4ccccc4)ncnc32)C2OC(=O)CC12 (stereo not given)
Assayed system: UACC-257 melanoma
growth (%): 122
//
Compound: CNCC[C@H](Oc1cccc2ccccc12)c1cccs1
Assayed system: UACC-257 melanoma
growth (%): 90.1
//
Compound: COc1ccccc1/C=C/C(=O)Nc1ccc(F)cc1
Assayed system: UACC-257 melanoma
growth (%): 99.4
//
Compound: Cc1ccc(O)c(NC(=O)c2cccc(Nc3ccnc(C(F)(F)F)c3)c2)c1
Assayed system: UACC-257 melanoma
growth (%): 58.7
//
Compound: Nc1cc(C(=O)O)cc(-n2c(O)c(C=C3N=c4ccccc4=N3)sc2=S)c1
Assayed system: UACC-257 melanoma
growth (%): 102
//
Compound: CN(C)CCC(=O)C1CC1
Assayed system: UACC-257 melanoma
growth (%): 91.7
//
Compound: Cc1ccc2cnc(N)c(C#Cc3cc(C(=O)Nc4ccc(CN5CCN(C)CC5)c(C(F)(F)F)c4)cnc3C)c2c1
Assayed system: UACC-257 melanoma
growth (%): 31.9

###

- Test system: RPMI-8226 leukemia
- Assay summary: NCI-60 one-dose screen, 48 h (100 = growth as untreated, 0 = no growth, -100 = all killed)
- Run conditions: 10 µM unless noted
This is part of a sample that, as a whole, favours compounds with a hit. Of some 83,000 tested, about 20% had one in any assay.

Smiles repr: C=C(C)[C@@H]1CC[C@]2(C(=O)N3CCNCC3)CC[C@]3(C)[C@H](CC[C@@H]4[C@@](C)(CCC(=O)N5CCNCC5)[C@H](C(=C)C)CC[C@]43C)[C@@H]12
Result unit: %
growth: 12.1

Smiles repr: O=C(Nc1cccnc1Nc1ccc(Cl)cc1)c1cn(Cc2cccc(Oc3ccccc3)c2)nn1
Result unit: %
growth: 40.9

Smiles repr: Nc1cc(Br)cc2c1[nH]c(=O)c1ccccc12
Result unit: %
growth: 96.1

Smiles repr: CC1=Nc2cnc(Nc3ccc(N4CCCCC4)cc3)nc2Nc2ccccc21
Result unit: %
growth: 34.3

Smiles repr: C=CCn1cc(-c2nc3ccccc3s2)c2cc(-c3ccc4c5c(cccc35)C(=O)N(CCO)C4=O)ccc21
Result unit: %
growth: 99.3

###

Recorded growth for the following molecules
- Test system: IGROV1 ovarian
- Assay summary: NCI-60 one-dose screen, 48 h (100 = growth as untreated, 0 = no growth, -100 = all killed)
- Run conditions: 10 µM unless noted
The panel holds about 83,000 compounds, 20% with a hit somewhere; the sample as a whole holds those more often.

Molecule: Cc1c2cnccc2c(C)c2c1c1cc(CO)ccc1n2C
growth, %: -36.4

Molecule: O=C(NCCNC(c1ccccc1)C(NCCNC(=O)c1ccccc1)c1ccccc1)c1ccccc1 (stereo not given)
growth, %: 82.4

Molecule: CCOC(=O)c1cnn(CC(C)O)c1NC(=O)NCc1ccccc1C(F)(F)F (stereo not given)
growth, %: 95.5

Molecule: O=C1Nc2ccc(Cl)cc2/C1=C/c1ccc[nH]1
growth, %: 58.2

Molecule: C=C1C(=O)O[C@H]2[C@H]1CC/C(COC(=O)NCc1ccc(Cn3c(=O)sn(-c4ccccc4)c3=O)cc1)=C\CC[C@@]1(C)O[C@@H]21
growth, %: -40.1

###

- Tested on: OVCAR-4 ovarian
- Assay summary: NCI-60 one-dose screen, 48 h (100 = growth as untreated, 0 = no growth, -100 = all killed)
- Run conditions: 10 µM unless noted
- Procedure: Growth inhibition of the OVCAR-4 human tumor cell line is measured as a screen for anti-cancer activity. Cells are grown in 96 well plates and exposed to the test compound for 48 hours. Compounds are tested at a single concentration, which is 10^-5 M for most compounds. The reported endpoint is percent growth (GI% or GIPRCNT), where numbers from 0 - 100% represent growth inhibition, and numbers from -100% - 0 represent cell death. For example, a value of 40 represents 60% growth inhibition. […]
The panel holds about 83,000 compounds, 20% with a hit somewhere; the sample as a whole holds those more often.
Listed below: growth values for each entry.

Compound: CCSc1ccnc(N)n1
growth / %: 111
--
Compound: CCCc1cc(=O)oc2c(C(=O)CC(C)C)c(O)c(CC=C(C)C)c(O)c12
growth / %: 30.5
--
Compound: COc1cc2c(c(OC)c1OC)C(=O)CC(c1cccc(C(=O)Nc3ccccc3Br)c1)O2 (stereo unspecified)
growth / %: 70.6
--
Compound: CNC(=O)Nc1ccc(-c2ccc3ncnc(Nc4cccc(Cl)c4)c3c2)cc1
growth / %: 69.7
--
Compound: Cc1cc2oc(/C=C/c3ccccc3)cc(=O)c2c(C)c1Cl
growth / %: 99
--
Compound: CN(C)C1CN(C(=O)c2cc(-c3ccc4ncnc(N5CCc6cc(F)c(Cl)cc65)c4c3)cnc2N)C1
growth / %: 5.94
--
Compound: c1cc(OCCN2CCCC2)ccc1CNc1ccc2nc(CCC3CCCCC3)[nH]c2c1
growth / %: 56.7
--
Compound: Cc1cc(C(=O)CCCC(=O)c2cc(C)c(O)c(C)c2)cc(C)c1O
growth / %: 93.1
--
Compound: CC(O)Cc1c[nH]c(=O)[nH]c1=O (stereo unspecified)
growth / %: 115
--
Compound: Cc1cn(C)cn1
growth / %: 100
--
Compound: CN1CC(c2ccc(Br)cc2)C(C(=O)c2ccc(Br)cc2)C12C(=O)Nc1ccccc12 (stereo unspecified)
growth / %: 63.6
--
Compound: COc1cc(C[C@H]2COc3cc(O)cc(O)c3C2=O)ccc1O
growth / %: 63.1
--
Compound: c1ccc(-c2c(-c3ccccc3)[n+](Cc3ccc4ccccc4c3)cn2Cc2ccc3ccccc3c2)cc1
growth / %: -81.5
--
Compound: Clc1ccc(Nc2ncc(Cc3cccc(Cl)c3Cl)s2)cc1
growth / %: 94.8
--
Compound: COc1cc2c(c(OC)c1OC)C(=O)CC(c1cccc(C(=O)Nc3ccc(C#N)cc3)c1)O2 (stereo unspecified)
growth / %: 55.2
--
Compound: Oc1nc(NCc2ccccc2)sc1/C=C1\C=Nc2ncccc21
growth / %: 96.4
--
Compound: CCCOC(=O)Nc1nc2ccc(SCC)cc2s1
growth / %: 94.2
--
Compound: Cc1ccc(-c2nc(SCC(=O)N3CCN(c4cc5c(cc4F)c(=O)c(C(=O)O)cn5C4CC4)CC3)nc(Cl)c2C#N)cc1
growth / %: 108
--
Compound: CCN(CC)CCOc1ccc(Nc2ncc3cc(-c4c(Cl)cccc4Cl)c(=O)n(CCOC)c3n2)cc1
growth / %: 35.3
--
Compound: CC/C(=C(/c1ccc(O)cc1)c1ccc(OCCN2CCCCC2)cc1)c1ccc(OC)cc1
growth / %: 90.4
--
Compound: COc1c2c(cc3c1C(=O)N[C@@H]1[C@@H](O)[C@@H](O)[C@H](O)C[C@@H]31)OCCO2
growth / %: 105

The values you see were collected from PubChem BioAssay (NCI).
